Test: CCTE_Shafer_MEA_acute_interburst_interval_mean: CCTE's Neural Acute Assay for Mean Interburst Interval, Shafer Lab (AID 2284016);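 note: percent change of mean interburst interval versus each well's own pre-dose baseline; curves fitted for decrease in interburst interval relative to DMSO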
Activity calls are given as the source filed them. Rule for the calls: active = hit-call score of the fitted dose curve at least 0.9, where 1 is the maximum; inactive = score below 0.9.
Give one outcome, nothing more. List: active, inactive

CCCCCCCCCCCC(=O)N(C)CC(=O)O :: active
Nc1cccc(N)n1 :: inactive
CCCC(C)C(=O)OCC (stereo not drawn) :: inactive
CC(CCC(=O)O)(c1ccc(O)cc1)c1ccc(O)cc1 :: inactive

Next, consider the following molecule.
Q. # fetch the recorded call for CC(C)C(=O)OCCc1ccccc1 here
A. inactive

---

Molecular target: Bile acid receptor (Homo sapiens) (UniProt Q96RI1)
Sequence (Q96RI1 whole entry, looked up): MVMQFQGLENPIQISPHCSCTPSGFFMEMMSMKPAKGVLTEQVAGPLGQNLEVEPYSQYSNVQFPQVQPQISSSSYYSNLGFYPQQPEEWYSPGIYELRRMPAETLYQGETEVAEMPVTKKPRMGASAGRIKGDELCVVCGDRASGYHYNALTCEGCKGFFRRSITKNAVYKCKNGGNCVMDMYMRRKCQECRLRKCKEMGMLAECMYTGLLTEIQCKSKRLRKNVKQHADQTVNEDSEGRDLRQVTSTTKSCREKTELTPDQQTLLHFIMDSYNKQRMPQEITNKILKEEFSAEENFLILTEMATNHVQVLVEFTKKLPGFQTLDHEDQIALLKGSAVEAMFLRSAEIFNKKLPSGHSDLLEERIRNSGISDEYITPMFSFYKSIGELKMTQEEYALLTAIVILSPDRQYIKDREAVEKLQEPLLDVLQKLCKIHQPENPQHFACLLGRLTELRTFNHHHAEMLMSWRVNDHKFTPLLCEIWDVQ
Assay: OT_FXR_FXRSRC1_1440: Odyssey Thera (OT) 24-hour HEK293T Protein-Complementation Assay for Farnesoid X receptor/SRC-1 Co-activator (AID 2283384)
Inconclusive results are not listed. Activity calls are given as the source filed them. The calls were made as follows: active = hit-call score of the fitted dose curve at least 0.9, where 1 is the maximum; inconclusive = response in the unintended direction; inactive = score below 0.9.
Give one outcome, nothing more. List: active, inactive

Q. # fetch the recorded call for CCCCc1ccc(Cl)cc1 here
A. inactive

Q. # fetch the recorded call for CCCCCCCCCCCCCCCCCCOS(=O)(=O)O here
A. inactive

Q. # fetch the recorded call for COc1ccc(C(=O)c2ccccc2)c(O)c1 here
A. inactive

Q. # fetch the recorded call for CCC(C)(O)CCCC(C)C (centres undefined) here
A. inactive

Q. # fetch the recorded call for CC(C)(C)NC(=O)[C@H]1CC[C@H]2[C@@H]3CC[C@H]4NC(=O)C=C[C@]4(C)[C@H]3CC[C@]12C here
A. active
